Assay: pharmacokinetic study in adult wild type FVB mice, oral
Assay type: in vivo
Conditions: male, mouse; brain; 20 mg/kg oral single; adult FVB mice
Procedure: TEC-1 was administered at doses of 2, 6, and 20 mg/kg for oral (suspended in 0.5% methyl cellulose aqueous solution) to male FVB mice (aged 8 weeks, 3 mice per a time point). After 0.5–120 h administration, blood and brain samples were collected. Blood samples with heparin were centrifuged for plasma collection. […] The samples were deproteinized with acetonitrile and following by centrifugation, and the supernatants were analyzed by LC/MS/MS to obtain TEC-1 concentrations of the plasma and brain.
Quantity name: MRT (h)
Output spec: scalar in h, unitless text.

### Prompt Recorded MRT of Cc1cn2nc(-c3nc4ccc(N5CCN(C)CC5)cc4c(=O)[nH]3)cc2c(C)n1 , please.
### Response 54.6

* * *

Test: pharmacokinetic study in neonatal/juvenile FVB mice, intraperitoneal
Assay type: in vivo
Conditions: male, mouse, ip; brain; 2 mg/kg i.p. single; juvenile FVB mice
Quantity name: Tmax (h)
Provide the reading as a plain figure in h.

### Prompt Fill blank: measured Tmax of the molecule Cc1cn2nc(-c3nc4ccc(N5CCN(C)CC5)cc4c(=O)[nH]3)cc2c(C)n1 [TEC-1] is ____.
### Response 1

* * *

Assay: pharmacokinetic study in adult wild type FVB mice, oral
Format: in vivo
Conditions: male, mouse; brain; 20 mg/kg oral single; adult FVB mice
Quantity name: Tmax (h)
Report as a plain number; the unit h is understood.

### Prompt # input molecule: Cc1cn2nc(-c3nc4ccc(N5CCN(C)CC5)cc4c(=O)[nH]3)cc2c(C)n1 [TEC-1] ; wanted: its Tmax
### Response 32

* * *

Experiment: pharmacokinetic study in adult wild type FVB mice, oral
Type: in vivo
Settings: male, mouse; brain; 6 mg/kg oral single; adult FVB mice
Quantity name: Tmax (h)
Output spec: scalar in h, unitless text.

### Prompt Given Cc1cn2nc(-c3nc4ccc(N5CCN(C)CC5)cc4c(=O)[nH]3)cc2c(C)n1 , state its recorded Tmax.
### Response 7

* * *

Test: pharmacokinetic study in adult wild type FVB mice, oral
Format: in vivo
Settings: male, mouse; plasma; 2 mg/kg oral single; adult FVB mice
Quantity name: MRT (h)
Write the number in h without appending the unit.

### Prompt // returns reported MRT for input Cc1cn2nc(-c3nc4ccc(N5CCN(C)CC5)cc4c(=O)[nH]3)cc2c(C)n1 [TEC-1]
### Response 10.7

* * *

Test: pharmacokinetic study in neonatal/juvenile FVB mice, intraperitoneal
Assay type: in vivo
Conditions: male, mouse, ip; plasma; 0.2 mg/kg i.p. single; juvenile FVB mice
Quantity name: MRT (h)
Answer with a number only, understood to be in h.

### Prompt Suppose we examine the molecule Cc1cn2nc(-c3nc4ccc(N5CCN(C)CC5)cc4c(=O)[nH]3)cc2c(C)n1 ; what MRT value has been reported?
### Response 7.21

* * *

Experiment: pharmacokinetic study in adult wild type FVB mice, oral
Assay type: in vivo
Conditions: male, mouse; brain; 20 mg/kg oral single; adult FVB mice
Quantity name: Cmax (ng/g)
Report the value in ng/g with no unit label.

### Prompt Please look up its Cmax: Cc1cn2nc(-c3nc4ccc(N5CCN(C)CC5)cc4c(=O)[nH]3)cc2c(C)n1
### Response 360

* * *

Experiment: pharmacokinetic study in adult wild type FVB mice, oral
Assay type: in vivo
Settings: male, mouse; plasma; 2 mg/kg oral single; adult FVB mice; mean, n = 3
Quantity name: Cmax

### Prompt Given the molecule Cc1cn2nc(-c3nc4ccc(N5CCN(C)CC5)cc4c(=O)[nH]3)cc2c(C)n1 [TEC-1] , what is its reported Cmax?
### Response 136 ng/mL

* * *

Test: pharmacokinetic study in adult wild type FVB mice, oral
Assay type: in vivo
Details: male, mouse; brain; 2 mg/kg oral single; adult FVB mice
Quantity name: Tmax
Returns: string containing the numeric result and its unit.

### Prompt Which Tmax value belongs to Cc1cn2nc(-c3nc4ccc(N5CCN(C)CC5)cc4c(=O)[nH]3)cc2c(C)n1 ?
### Response 1 h

* * *

Test: pharmacokinetic study in adult wild type FVB mice, oral
Type: in vivo
Conditions: male, mouse; brain; 6 mg/kg oral single; adult FVB mice
Quantity name: MRT (h)
Use h as the unit, but write only the number.

### Prompt Record request: MRT value, item Cc1cn2nc(-c3nc4ccc(N5CCN(C)CC5)cc4c(=O)[nH]3)cc2c(C)n1
### Response 29.5

* * *

Test: pharmacokinetic study in neonatal/juvenile FVB mice, intraperitoneal
Type: in vivo
Conditions: male, mouse, ip; plasma; 0.6 mg/kg i.p. single; juvenile FVB mice
Quantity name: Tmax
Respond with a number, then the unit of measure.

### Prompt Which Tmax reading was recorded for the compound Cc1cn2nc(-c3nc4ccc(N5CCN(C)CC5)cc4c(=O)[nH]3)cc2c(C)n1 ?
### Response 30 min

* * *

Assay: pharmacokinetic study in adult wild type FVB mice, oral
Format: in vivo
Conditions: male, mouse; brain/plasma; 2 mg/kg oral single; adult FVB mice; read-out: Kp (AUC0–120h ratio)
Quantity name: Kp
Respond with the number and no other words.

### Prompt Item under review: Cc1cn2nc(-c3nc4ccc(N5CCN(C)CC5)cc4c(=O)[nH]3)cc2c(C)n1 . Reported Kp?
### Response 1.2

* * *

Test: pharmacokinetic study in adult wild type FVB mice, oral
Type: in vivo
Conditions: male, mouse; brain; 2 mg/kg oral single; adult FVB mice
Experimental: TEC-1 was administered at doses of 2, 6, and 20 mg/kg for oral (suspended in 0.5% methyl cellulose aqueous solution) to male FVB mice (aged 8 weeks, 3 mice per a time point). After 0.5–120 h administration, blood and brain samples were collected. Blood samples with heparin were centrifuged for plasma collection. […] The samples were deproteinized with acetonitrile and following by centrifugation, and the supernatants were analyzed by LC/MS/MS to obtain TEC-1 concentrations of the plasma and brain.
Quantity name: MRT (h)
The figure you give is taken to be in h; do not add the unit.

### Prompt Record request: MRT value, item Cc1cn2nc(-c3nc4ccc(N5CCN(C)CC5)cc4c(=O)[nH]3)cc2c(C)n1
### Response 10.7
